Where these numbers come from: patent US12583825B2

In this section, each of the molecules is paired with its reported GI50.
- Test system: MDA-MB-231 cells
- TEST_DETAILS: MDA-MB-231 proliferation assay
- Type: cell-based
- SETTINGS: Homo sapiens, 72 hours, YO-PRO-1 readout
Numeric answer only, unit nM assumed.

Observe how each entry below is paired with its result.
CN1C[C@@H](CO/N=C2\c3cc(O[C@H]4CC[C@H](N)CC4)ccc3-c3ncnc(N)c3C2(C)C)OC1=O [Example 56] = 332
CN(C)CCO/N=C1\c2cc(O[C@H]3CC[C@H](N)CC3)ccc2-c2ncnc(N)c2C1(C)C [Example 35] = 1480
COCCO/N=C1\c2cc(N[C@H]3CC[C@@H](N)CC3)ccc2-c2ncnc(N)c2C1(C)C [Example 96] = 670

In: Give the reported GI50 for this molecule. CC1(C)/C(=N/OCCCc2cccnc2)c2cc(O[C@H]3CC[C@@H](N)CC3)ccc2-c2ncnc(N)c21 [Example 108]
Out: 942

In: Give the reported GI50 for this molecule. CN1C[C@@H](CO/N=C2\c3cc(Br)ccc3-c3ncnc(N)c3C2(C)C)OC1=O [Example 53]
Out: 194

###

- System: MDA-MB-231 cells
- TEST_DETAILS: MDA-MB-231 proliferation assay
- Format: cell-based
- SETTINGS: Homo sapiens, 72 hours, YO-PRO-1 readout
QUANTITY_MEASURED: GI50

Observe how each entry below is paired with its result.
COc1ccc2c(c1)/C(=N\OC[C@H]1CNC(=O)O1)C(C)(C)c1c(N)ncnc1-2 = > 2000 nM
CC(=O)c1ccc2c(c1)/C(=N\OC[C@@H]1CNC(=O)O1)C(C)(C)c1c(N)ncnc1-2 = > 2000 nM
COCCO/N=C1\c2cc(O[C@H]3CC[C@H](N)CC3)ccc2-c2ncnc(N)c2C1(C)C = 378 nM
N#CCCO/N=C1\c2cc(O[C@H]3CC[C@H](N)CC3)ccc2-c2ncnc(N)c2C12CCCC2 = 10.1 nM
CC1(C)/C(=N\OCCC#N)c2cc(O[C@H]3CC[C@H](N)CC3)ccc2-c2ncnc(N)c21 = > 2000 nM

In: Give the reported GI50 for this molecule. COc1ccc2c(c1)/C(=N\OC[C@H]1CC(=O)N(C)C1)C(C)(C)c1c(N)ncnc1-2
Out: > 2000 nM

In: Give the reported GI50 for this molecule. COCCO/N=C1\c2cc(Br)ccc2-c2ncnc(N)c2C1(C)C
Out: > 2000 nM

In: Give the reported GI50 for this molecule. COCCO/N=C1\c2cc(O[C@H]3CC[C@@H](N)CC3)ccc2-c2ncnc(N)c2C1(C)C
Out: 98.5 nM

###

- MEASURED_TARGET: recombinant human CLK3 (Homo sapiens)
- Sequence (P49761 whole entry): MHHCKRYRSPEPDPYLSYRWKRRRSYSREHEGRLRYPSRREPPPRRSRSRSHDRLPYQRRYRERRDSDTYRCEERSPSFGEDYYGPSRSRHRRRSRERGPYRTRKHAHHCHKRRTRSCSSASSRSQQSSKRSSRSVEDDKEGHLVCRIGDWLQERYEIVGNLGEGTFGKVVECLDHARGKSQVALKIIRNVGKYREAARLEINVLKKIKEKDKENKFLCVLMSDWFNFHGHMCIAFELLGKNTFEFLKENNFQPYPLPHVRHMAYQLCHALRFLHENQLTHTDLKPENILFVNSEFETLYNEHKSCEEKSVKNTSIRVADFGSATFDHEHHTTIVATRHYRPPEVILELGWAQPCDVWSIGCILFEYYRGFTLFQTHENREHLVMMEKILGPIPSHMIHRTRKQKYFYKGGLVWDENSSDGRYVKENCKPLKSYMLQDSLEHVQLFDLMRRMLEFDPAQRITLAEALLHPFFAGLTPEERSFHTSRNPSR
- TEST_DETAILS: CLK3 kinase assay (LANCE Ultra)
- SETTINGS: 0.5 nM CLK3, 300 μM ATP, 3 hours at 30° C.
QUANTITY_MEASURED: IC50 (nM)
Numeric answer only, unit nM assumed.

CC1(C)/C(=N/OC[C@@H]2CNC(=O)O2)c2cc(OCCO)ccc2-c2ncnc(N)c21 = 18.6

In: Give the reported IC50 for this molecule. CC1(C)/C(=N/OCC(N)=O)c2cc(O[C@H]3CC[C@H](N)CC3)ccc2-c2ncnc(N)c21
Out: 29.6

In: Give the reported IC50 for this molecule. CC1(C)/C(=N/OCCN2CCCCC2)c2cc(O[C@H]3CC[C@H](N)CC3)ccc2-c2ncnc(N)c21
Out: 265

In: Give the reported IC50 for this molecule. Nc1ncnc2c1C1(CCCC1)/C(=N/O)c1cc(O[C@H]3CC[C@@H](N)CC3)ccc1-2
Out: 10.4

In: Give the reported IC50 for this molecule. CC1(C)/C(=N/OCCCC(F)(F)F)c2cc(O[C@H]3CC[C@@H](N)CC3)ccc2-c2ncnc(N)c21
Out: 48.9

In: Give the reported IC50 for this molecule. C=C(c1ccc2c(c1)/C(=N\OC)C(C)(C)c1c(N)ncnc1-2)[C@H]1CC[C@H](N)CC1
Out: 2.1

In: Give the reported IC50 for this molecule. CO/N=C1\c2cc(OC3CCNCC3)ccc2-c2ncnc(N)c2C1(C)C
Out: 13

In: Give the reported IC50 for this molecule. CCOC(=O)CCO/N=C1\c2cc(O[C@H]3CC[C@H](N)CC3)ccc2-c2ncnc(N)c2C1(C)C
Out: 26.5

In: Give the reported IC50 for this molecule. CO/N=C1\c2cc(N(C)[C@H]3CC[C@H](N)CC3)ccc2-c2ncnc(N)c2C1(C)C
Out: 15.8

In: Give the reported IC50 for this molecule. Cc1noc(C)c1CO/N=C1\c2cc(O[C@H]3CC[C@H](N)CC3)ccc2-c2ncnc(N)c2C1(C)C
Out: 151

In: Give the reported IC50 for this molecule. COCCN1C[C@@H](CO/N=C2\c3cc(Br)ccc3-c3ncnc(N)c3C2(C)C)OC1=O
Out: 9.37

In: Give the reported IC50 for this molecule. COC(=O)CCO/N=C1\c2cc(O[C@H]3CC[C@H](N)CC3)ccc2-c2ncnc(N)c2C1(C)C
Out: 23.9

In: Give the reported IC50 for this molecule. CN1C[C@@H](CO/N=C2\c3cc(O[C@H]4CC[C@@H](N)CC4)ccc3-c3ncnc(N)c3C2(C)C)OC1=O
Out: 8.8

In: Give the reported IC50 for this molecule. CC1(C)/C(=N/OCCO)c2cc(Br)ccc2-c2ncnc(N)c21
Out: 63

In: Give the reported IC50 for this molecule. CC(F)(F)CCO/N=C1\c2cc(O[C@H]3CC[C@@H](N)CC3)ccc2-c2ncnc(N)c2C1(C)C
Out: 19.4

In: Give the reported IC50 for this molecule. CO/N=C1\c2cc(O)ccc2-c2ncnc(N)c2C1(C)C
Out: 53.6

In: Give the reported IC50 for this molecule. CC1(C)/C(=N/OCCCO)c2cc(O[C@H]3CC[C@H](N)CC3)ccc2-c2ncnc(N)c21
Out: 29.8

In: Give the reported IC50 for this molecule. CC1(C)/C(=N/OCc2ccc(C#N)cc2)c2cc(O[C@H]3CC[C@H](N)CC3)ccc2-c2ncnc(N)c21
Out: 237

In: Give the reported IC50 for this molecule. CO/N=C1\c2cc(O[C@H]3CC[C@H](N)CC3)ccc2-c2ncnc(N)c2C1(C)C
Out: 9.1

In: Give the reported IC50 for this molecule. CO/N=C1\c2cc(OC)cc(F)c2-c2ncnc(N)c2C1(C)C
Out: 84.8

In: Give the reported IC50 for this molecule. COCCO/N=C1\c2cc(O[C@H]3CC[C@H](N)CC3)ccc2-c2ncnc(N)c2C1(C)C
Out: 15.4

In: Give the reported IC50 for this molecule. CC1(C)/C(=N/OCC#N)c2cc(O[C@H]3CC[C@H](N)CC3)ccc2-c2ncnc(N)c21
Out: 34.5

In: Give the reported IC50 for this molecule. CC1(C)/C(=N/OC[C@@H]2CNC(=O)O2)c2cc(Br)ccc2-c2ncnc(N)c21
Out: 7.26

In: Give the reported IC50 for this molecule. CCN(CC)CCCO/N=C1\c2cc(O[C@H]3CC[C@H](N)CC3)ccc2-c2ncnc(N)c2C1(C)C
Out: 410

In: Give the reported IC50 for this molecule. CN(C)CCO/N=C1\c2cc(O[C@H]3CC[C@H](N)CC3)ccc2-c2ncnc(N)c2C1(C)C
Out: 144

In: Give the reported IC50 for this molecule. CC1(C)/C(=N/OCCN2CCCC2)c2cc(O[C@H]3CC[C@H](N)CC3)ccc2-c2ncnc(N)c21
Out: 279

In: Give the reported IC50 for this molecule. CC1(C)/C(=N/OC[C@@H]2CNC(=O)O2)c2cc(I)ccc2-c2ncnc(N)c21
Out: 6.2

In: Give the reported IC50 for this molecule. C[C@H](O)CO/N=C1\c2cc(O[C@H]3CC[C@H](N)CC3)ccc2-c2ncnc(N)c2C1(C)C
Out: 40.7

In: Give the reported IC50 for this molecule. CC1(C)/C(=N/OCCO)c2cc(O[C@H]3CC[C@@H](N)CC3)ccc2-c2ncnc(N)c21
Out: 18.7
